Test: chemical genetic growth profiling, strain panel (AID 1159580);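 further: tested at 20 µM; growth read once vehicle control cultures reached saturation at 30 °C; 1 = growth at the plate median or of vehicle wells; lower values mean less growth of the strain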
Settings: S. cerevisiae deletion strains, growth OD, locus YNL322C, strain KRE1 (second series), active compounds read low
In all, about 5,500 compounds went through this assay and about 2,000 (36%) were called active. Another 18% or so got no clear call; they are omitted. This is one part of the list.
Readout Type: normalized growth
Numbers only.

Some compounds with known normalized growth results, for comparison:
What normalized growth value was documented for this compound, CC1(C)CC2C1CCC1(C)OC1CCC2(C)O (stereo not drawn) ?
1.04

Dear colleague, I am looking for the recorded normalized growth of the following compound: CC1(C)CC2C1CCC1(C)OC2(C)CCC1O (stereo not drawn)
1.02

New cases:
Any idea what its normalized growth is? The compound is CCOc1ccc2c(c1)C(C)=CC(C)(C)N2
0.984
